Hey, just so you know, these numbers are from PubChem BioAssay (NCI).

test system: SW-620 colon; assay: NCI tumour cell line growth inhibition, 48 h
REPORTED_METRIC: TGI

1. NC(CSS(=O)(=O)c1ccccc1)C(=O)O (stereo not drawn)
> 10 µM

Return reported TGI values for all items listed beneath this line.
1. COc1cc(-c2cc(=O)c3c(OC)c(OC)c(OC)c(OC)c3o2)cc(OC)c1OC
2. COc1cc(C2c3[nH]c4ccccc4c3[C@@H](Nc3ccc(F)cc3)[C@H]3COC(=O)N23)cc(OC)c1O (stereo partly drawn)
3. N#Cc1c(N)nc(Nc2cccc3ccccc23)c(C#N)c1C#N
4. Cc1cccc(C)c1NC(=O)/C(Cc1nc2ccc([N+](=O)[O-])cc2[nH]c1=O)=N\NC(N)=O
5. CNC(=O)N(C1=NCC(C)S1)c1ccc(C)c(C)c1 (stereo not drawn)

> 100 µM
5.74 µM
> 10 µM
> 100 µM
> 100 µM

Return reported TGI values for all items listed beneath this line.
1. NC1CSc2ccccc2NC1=O (stereo not drawn)
2. O=C(CC1(O)C(=O)Nc2c(Cl)cc(Cl)cc21)c1ccco1 (stereo not drawn)

1. > 100 µM
2. > 100 µM
